Tested system: serotonin (5-HTT) reuptake site (Rattus norvegicus)
Construct: on rat frontal cortex membranes; from tissue; host or cells: rat frontal cortex membranes
Sequence (P31652 whole entry): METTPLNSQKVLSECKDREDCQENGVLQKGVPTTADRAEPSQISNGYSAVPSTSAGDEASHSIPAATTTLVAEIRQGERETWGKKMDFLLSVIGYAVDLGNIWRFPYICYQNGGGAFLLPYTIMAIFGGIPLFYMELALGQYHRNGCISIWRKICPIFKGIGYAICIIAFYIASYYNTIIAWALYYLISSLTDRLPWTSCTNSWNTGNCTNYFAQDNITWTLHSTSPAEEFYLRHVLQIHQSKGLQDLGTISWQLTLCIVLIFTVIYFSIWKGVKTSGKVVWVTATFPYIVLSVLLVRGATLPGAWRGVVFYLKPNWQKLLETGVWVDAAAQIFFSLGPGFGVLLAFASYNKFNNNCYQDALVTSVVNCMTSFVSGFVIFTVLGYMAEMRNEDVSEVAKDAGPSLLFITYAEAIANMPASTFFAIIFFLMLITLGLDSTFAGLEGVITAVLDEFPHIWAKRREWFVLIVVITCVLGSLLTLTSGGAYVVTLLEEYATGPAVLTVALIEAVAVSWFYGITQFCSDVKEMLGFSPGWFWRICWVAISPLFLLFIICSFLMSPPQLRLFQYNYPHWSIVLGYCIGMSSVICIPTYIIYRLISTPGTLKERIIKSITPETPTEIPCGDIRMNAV
Protocol: Affinity for serotonin reuptake sites in the rat ([3H]-citalopram competition)
Assay type: binding
Applied conditions: rat frontal cortex membranes, 0.7 nM [3H]-citalopram, 2 hours at 25° C.; pKi=-log Ki (Cheng-Prusoff); read-out: pKi r5-HTT (converted)
Counter-ions that a name gives are not always drawn.
Parameter: Ki. Scope: all listed entries.
Quick reminder: number only, in µM, skip the unit.

In the examples that follow, each entry is paired with its recorded Ki.
# lookup: Ki of Brc1cc(Br)cc(CO[C@@H]2Cc3ccccc3[C@@H]2N2CCNCC2)c1 [Example 21, dihydrochloride]
0.0123

# lookup: Ki of Fc1cc(F)cc(CO[C@@H]2Cc3ccccc3[C@@H]2N2CCNCC2)c1 [Example 36, dihydrochloride]
0.00107

# lookup: Ki of Brc1cc(Br)cc(CO[C@@H]2Cc3ccccc3[C@H]2N2CCNCC2)c1 (racemic) [Example 1, dihydrochloride]
0.00447

# lookup: Ki of Fc1cc(Cl)cc(CO[C@@H]2COc3ccccc3[C@H]2N2CCNCC2)c1 (relative stereo) [Example 47, dihydrochloride]
0.0355

# lookup: Ki of Cc1cc(C)cc(CO[C@@H]2Cc3ccccc3[C@@H]2N2CCNCC2)c1 [Example 38, dihydrochloride]
0.00186

Next:
# lookup: Ki of Brc1cc(Br)cc(CO[C@@H]2COc3ccccc3[C@H]2N2CCNCC2)c1 (racemic) [Example 4, dihydrochloride]
0.0794

# lookup: Ki of Clc1cc(Cl)cc(CO[C@@H]2COc3ccccc3[C@H]2N2CCNCC2)c1 (relative stereo) [Example 44, dihydrochloride]
0.049

# lookup: Ki of COc1ccc2c(c1)[C@@H](N1CCNCC1)[C@H](OCc1cc(Cl)cc(Cl)c1)C2 (relative stereo) [Example 42, dihydrochloride]
0.0195

----------
Tested system: human NK1 receptors (Homo sapiens, UniProt P25103)
Construct: IM9 human lymphoblast cells endogenously expressing NK1 receptors; endogenous in cells
Sequence (P25103 whole entry): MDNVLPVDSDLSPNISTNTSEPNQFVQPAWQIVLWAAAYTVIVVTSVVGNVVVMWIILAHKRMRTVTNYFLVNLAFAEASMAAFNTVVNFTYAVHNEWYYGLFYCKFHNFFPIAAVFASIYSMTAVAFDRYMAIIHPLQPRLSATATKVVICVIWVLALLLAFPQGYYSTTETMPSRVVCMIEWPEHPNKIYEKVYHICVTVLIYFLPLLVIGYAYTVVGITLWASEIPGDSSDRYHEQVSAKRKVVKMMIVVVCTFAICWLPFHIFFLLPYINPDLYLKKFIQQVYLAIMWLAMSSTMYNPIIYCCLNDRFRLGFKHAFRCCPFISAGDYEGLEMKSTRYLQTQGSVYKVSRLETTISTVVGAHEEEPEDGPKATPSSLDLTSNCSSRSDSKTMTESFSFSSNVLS
Protocol: hNK1 binding ([3H]-Substance P competition on IM9 human lymphoblast cells)
Applied conditions: IM9 human lymphoblast cells endogenously expressing NK1 receptors, 1.5 nM [3H]-Substance P, 90 minutes at ambient temperature; pKi=-log Ki (Cheng-Prusoff)
Experimental: The affinity of compounds of the invention was determined by competition experiments in the presence of [^3H]-Substance P (Sar-9, MetO2-11,2-propyl-3,4-3H). […] The volume of incubation buffer is determined so as to obtain a concentration of 5×10^6 cells/ml. […] Non-specific binding is determined in the presence of 1 μM GR 205171. […]
Counter-ions that a name gives are not always drawn.
Parameter: pKi. Scope: all listed entries.
pKi is a log-scale quantity: -log10 of the concentration expressed in molar.

In the examples that follow, each entry is paired with its recorded pKi.
Any idea what pKi came out for NC1CCN([C@@H]2c3ccccc3OC[C@H]2OCc2cc(Br)cc(Br)c2)CC1 (relative stereo) [Example 9, dihydrochloride] on human NK1 receptors (Homo sapiens, UniProt P25103)?
7.96

Any idea what pKi came out for FC(F)(F)c1cc(CO[C@@H]2Cc3ccccc3[C@H]2N2CCNCC2)cc(C(F)(F)F)c1 (relative stereo) [Example 40, dihydrochloride] on human NK1 receptors (Homo sapiens, UniProt P25103)?
6.85

Any idea what pKi came out for Brc1cc(Br)cc(COC2CCc3ccccc3C2N2CCCNCC2)c1 (single isomer, unassigned; (-)) [Example 19, dihydrochloride] on human NK1 receptors (Homo sapiens, UniProt P25103)?
7.40

Any idea what pKi came out for COc1ccc2c(c1)CC[C@@H](OCc1cc(Br)cc(Br)c1)[C@@H]2N1CCNCC1 (relative stereo) [Example 13, dihydrochloride] on human NK1 receptors (Homo sapiens, UniProt P25103)?
6.60

Any idea what pKi came out for Brc1cc(Br)cc(CO[C@@H]2Cc3ccccc3[C@H]2N2CCNCC2)c1 (racemic) [Example 1, dihydrochloride] on human NK1 receptors (Homo sapiens, UniProt P25103)?
6.84

Next:
Any idea what pKi came out for Brc1cc(Br)cc(CO[C@@H]2CCOc3ccccc3[C@H]2N2CCNCC2)c1 (relative stereo) [Example 8, dihydrochloride] on human NK1 receptors (Homo sapiens, UniProt P25103)?
7.54

Any idea what pKi came out for Brc1cc(Br)cc(CO[C@@H]2COc3ccccc3[C@H]2N2CCNCC2)c1 (racemic) [Example 4, dihydrochloride] on human NK1 receptors (Homo sapiens, UniProt P25103)?
8.25

Any idea what pKi came out for Brc1cc(Br)cc(CO[C@@H]2CCc3ccccc3[C@H]2N2CCNCC2)c1 (racemic) [Example 15, dihydrochloride] on human NK1 receptors (Homo sapiens, UniProt P25103)?
7.48

Any idea what pKi came out for Brc1cc(Br)cc(CO[C@@H]2CCCc3ccccc3[C@H]2N2CCNCC2)c1 (relative stereo) [Example 7, dihydrochloride] on human NK1 receptors (Homo sapiens, UniProt P25103)?
8.14
